Would you mind telling me the reported DC50 of each entry?
- system_name: IRAK4 (Homo sapiens)
- Construct: Degradation of IRAK4 in OCI-LY10 was quantitatively measured using Meso Scale Discovery technology; endogenous in cells; host or cells: OCI-LY10
- Sequence (Q9NWZ3 1-460): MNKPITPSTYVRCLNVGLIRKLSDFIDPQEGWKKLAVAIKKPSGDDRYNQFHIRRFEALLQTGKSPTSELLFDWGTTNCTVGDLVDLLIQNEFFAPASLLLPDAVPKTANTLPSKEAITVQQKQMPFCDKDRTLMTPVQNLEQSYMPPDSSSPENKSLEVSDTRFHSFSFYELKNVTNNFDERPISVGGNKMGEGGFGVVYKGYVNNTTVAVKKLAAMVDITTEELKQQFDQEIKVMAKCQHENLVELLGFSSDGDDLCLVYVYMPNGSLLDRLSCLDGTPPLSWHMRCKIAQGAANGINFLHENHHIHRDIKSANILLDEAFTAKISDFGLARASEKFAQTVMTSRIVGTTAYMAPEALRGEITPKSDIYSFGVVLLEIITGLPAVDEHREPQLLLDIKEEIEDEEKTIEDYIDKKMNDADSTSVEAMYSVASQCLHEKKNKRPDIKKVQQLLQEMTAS
- protocol_notes: IRAK4 MSD Degradation in OCI-LY10
- Format: cell-based
- condition: OCI-LY10 cells, 24 hrs incubation, MSD; read-out: IRAK4 degradation in OCI-LY10 at 24 hrs: DC50

[in] Form field: reported DC50 of Cn1c(=O)n(C2CCC(=O)NC2=O)c2cccc(C3=CCN(C[C@H]4CC[C@H](n5cc6cc(NC(=O)c7cccc(C(F)(F)F)n7)ccc6n5)CC4)CC3F)c21 (some centres unmarked) [I-706]
[out] 10 to 100 nM

[in] Form field: reported DC50 of CN(C[C@H]1CC[C@H](n2cc(NC(=O)c3cnn4ccc(N5CC6(CC6)C5)nc34)c(C(F)F)n2)CC1)C1CCN(c2cccc3c2n(C)c(=O)n3C2CCC(=O)NC2=O)CC1 (some centres unmarked) [I-274]
[out] < 10 nM

[in] Form field: reported DC50 of Cn1c(=O)n(C2CCC(=O)NC2=O)c2cccc(C3CN([C@H]4CCN(C[C@H]5CC[C@H](n6cc7cc(NC(=O)c8cccc(C(F)(F)F)n8)ccc7n6)CC5)C[C@@H]4F)C3)c21 (some centres unmarked) [I-671]
[out] < 10 nM

[in] Form field: reported DC50 of Cn1c(=O)n(C2CCC(=O)NC2=O)c2cccc(N3CCN(CC4COC5(C4)CN(C[C@H]4CC[C@H](n6cc7cc(NC(=O)c8cccc(C(F)(F)F)n8)ncc7n6)CC4)C5)CC3)c21 (some centres unmarked) [I-662]
[out] > 200 nM

[in] Form field: reported DC50 of Cn1c(=O)n(C2CCC(=O)NC2=O)c2ccc(N3CC4(CCN(C[C@H]5CC[C@H](n6cc7cc(NC(=O)c8cccc(C(F)(F)F)n8)ncc7n6)CC5)CC4(F)F)C3)c(F)c21 (some centres unmarked) [I-737]
[out] 10 to 100 nM
